Target: Disintegrin and metalloproteinase domain-containing protein 17 (Homo sapiens, UniProt P78536)
Sequence (P78536 whole entry, the tested form may be a part): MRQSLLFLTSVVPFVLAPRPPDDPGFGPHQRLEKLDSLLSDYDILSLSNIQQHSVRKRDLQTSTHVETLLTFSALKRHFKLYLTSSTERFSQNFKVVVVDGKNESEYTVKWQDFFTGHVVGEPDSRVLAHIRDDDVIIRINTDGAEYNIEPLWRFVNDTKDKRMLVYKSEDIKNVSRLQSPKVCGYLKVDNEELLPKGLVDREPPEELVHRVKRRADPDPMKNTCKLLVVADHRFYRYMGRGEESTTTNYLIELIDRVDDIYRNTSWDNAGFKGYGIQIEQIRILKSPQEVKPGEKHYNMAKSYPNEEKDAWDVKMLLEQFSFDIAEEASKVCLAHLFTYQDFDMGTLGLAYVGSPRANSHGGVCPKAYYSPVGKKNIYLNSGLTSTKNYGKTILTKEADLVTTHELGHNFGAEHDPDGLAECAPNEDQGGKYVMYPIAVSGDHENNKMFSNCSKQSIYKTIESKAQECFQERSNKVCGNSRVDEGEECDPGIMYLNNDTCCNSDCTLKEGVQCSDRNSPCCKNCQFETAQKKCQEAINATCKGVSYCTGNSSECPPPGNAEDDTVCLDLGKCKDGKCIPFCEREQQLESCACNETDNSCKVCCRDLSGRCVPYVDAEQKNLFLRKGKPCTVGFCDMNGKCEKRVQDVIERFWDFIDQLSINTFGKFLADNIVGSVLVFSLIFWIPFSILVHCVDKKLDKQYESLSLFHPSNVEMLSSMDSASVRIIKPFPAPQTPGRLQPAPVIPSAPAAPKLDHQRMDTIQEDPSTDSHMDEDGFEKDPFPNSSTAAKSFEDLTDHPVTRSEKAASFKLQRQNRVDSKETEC
Test: Inhibition of LPS-stimulated TNF production in THP cells at 3 uM
Assay type: functional, cell-based
Outcome: y for inhibition of at least 80%; n for anything lower.

Field: example entries. Status: answers known.
- compoundStructure: "CC#CCOc1ccc(S(=O)(=O)N2C[C@H](CNS(C)(=O)=O)SC(C)(C)[C@@H]2C(=O)NO)cc1"
  classification: "y"
- compoundStructure: "CC#CCOc1ccc(S(=O)(=O)N2CCSC(C)(C)[C@@H]2C(=O)NO)cc1"
  classification: "y"
- compoundStructure: "CC1(C)SCCN(S(=O)(=O)c2ccc(OCC#CCCO)cc2)[C@H]1C(=O)NO"
  classification: "n"

Ask: Quick check: does `CC1(C)SCCN(S(=O)(=O)c2ccc(OCC#CCN)cc2)[C@H]1C(=O)NO` have inhibition greater than or equal to 80%?
Reply: n

Ask: Record `CC(C)(C)OC(=O)NCCC#CCOc1ccc(S(=O)(=O)N2CCSC(C)(C)[C@@H]2C(=O)NO)cc1` ; criterion: inhibition no lower than 80%. Met?
Reply: n

Ask: Decide: inhibition of `C#CCOc1ccc(S(=O)(=O)N2CCSC(C)(C)[C@@H]2C(=O)NO)cc1` >= 80%?
Reply: y

Ask: Form field: inhibition at least 80%? Entry: `C#CCCCOc1ccc(S(=O)(=O)N2CCSC(C)(C)[C@@H]2C(=O)NO)cc1`
Reply: n

Ask: inhibition >= 80% for `CC#CCOc1ccc(S(=O)(=O)N2C[C@H](CCN(CC)CC)SC(C)(C)[C@@H]2C(=O)NO)cc1` ?
Reply: y

Ask: Entry `CC1(C)SCCN(S(=O)(=O)c2ccc(OCC#CCO)cc2)[C@H]1C(=O)NO` : is its inhibition no less than 80%?
Reply: y

Ask: Hello, I need to know if `CC#CCOc1ccc(S(=O)(=O)N2C[C@H](CC(N)=O)SC(C)(C)[C@@H]2C(=O)NO)cc1` has measured inhibition not below 80%. Thanks!
Reply: y

Ask: Is reported inhibition greater than or equal to 80% here: `CC(C)(C)OC(=O)NCCCC#CCOc1ccc(S(=O)(=O)N2CCSC(C)(C)[C@@H]2C(=O)NO)cc1`
Reply: n

Ask: Is reported inhibition greater than or equal to 80% here: `CC(C)(C)OC(=O)NCCCCC#CCOc1ccc(S(=O)(=O)N2CCSC(C)(C)[C@@H]2C(=O)NO)cc1`
Reply: n

Ask: Determine whether this compound has inhibition no lower than 80%: `C#CCCOc1ccc(S(=O)(=O)N2CCSC(C)(C)[C@@H]2C(=O)NO)cc1`
Reply: n

Ask: Evaluate `CC1(C)SCCN(S(=O)(=O)c2ccc(OCC#CCCCN)cc2)[C@H]1C(=O)NO` : inhibition at minimum 80%?
Reply: n

* * *

Target: Disintegrin and metalloproteinase domain-containing protein 17 (Homo sapiens)
Assay: Inhibition of LPS-stimulated TNF production in THP cells at 1 uM
Format: functional, cell-based
Threshold check on inhibition: at or above 20% gives t, strictly below gives f.

- compoundStructure: "CC1(C)SCCN(S(=O)(=O)c2ccc(OCC#CCCCN)cc2)[C@H]1C(=O)NO"
  classification: "f"
- compoundStructure: "CCCCC#CCOc1ccc(S(=O)(=O)N2CCSC(C)(C)[C@@H]2C(=O)NO)cc1"
  classification: "t"
- compoundStructure: "CC1(C)SCCN(S(=O)(=O)c2ccc(OCC#CCN)cc2)[C@H]1C(=O)NO"
  classification: "f"
- compoundStructure: "C#CC#CCOc1ccc(S(=O)(=O)N2CCSC(C)(C)[C@@H]2C(=O)NO)cc1"
  classification: "t"
- compoundStructure: "C#CCCOc1ccc(S(=O)(=O)N2CCSC(C)(C)[C@@H]2C(=O)NO)cc1"
  classification: "t"

Ask: Quick check, inhibition >= 20%? `CC#CCOc1ccc(S(=O)(=O)N2CCSC(C)(C)[C@@H]2C(=O)NO)cc1`
Reply: t

Ask: Please tell me: is the compound `C#CCCCOc1ccc(S(=O)(=O)N2CCSC(C)(C)[C@@H]2C(=O)NO)cc1` at or over 20% in terms of inhibition?
Reply: f

Ask: I'd appreciate it if you could say whether `C#CCOc1ccc(S(=O)(=O)N2CCSC(C)(C)[C@@H]2C(=O)NO)cc1` has inhibition at least equal to 20%.
Reply: t

Ask: Hi team, for `CC(C)(C)OC(=O)NCC#CCOc1ccc(S(=O)(=O)N2CCSC(C)(C)[C@@H]2C(=O)NO)cc1` , is the recorded inhibition at or above 20%?
Reply: t
